# System: human Factor XI mRNA
# experiment: Dose-dependent inhibition in HepG2 cells, electroporation (Example 4)
# Type: cell-based
# study.conditions: 0.7 μM, 16 hours
In the oligonucleotide strings, read from the 5' end, every base follows the letter of its sugar. An asterisk marks phosphorothioate; unmarked linkages are phosphodiester. Other units and linkages are bracketed, terminal groups are in braces. A string of capitals states the bases alone. e = 2'-O-(2-methoxyethyl) (MOE); [5mC] = 5-methylcytosine; d = 2'-deoxy (DNA)
Listing of recorded percent inhibition of Factor XI mRNA, relative to untreated control cells by entry.
endpoint: percent inhibition of Factor XI mRNA, relative to untreated control cells (%)

{"columns": ["substance", "unit", "assay.result"],
 "data": [
  ["416973 (antisense eT*eT*dA*dT*dG*d[5mC]*d[5mC]*d[5mC]*dT*dT*d[5mC]*dA*dT*dG*dT*e[5mC]*eT*eA*eG*eG) [compound 416973]", "%", 20],
  ["416993 (antisense e[5mC]*eT*dT*dT*dG*dA*dG*dA*dT*dT*d[5mC]*dT*dT*dT*dG*eG*eG*e[5mC]*e[5mC]*eA) [compound 416993]", "%", 22],
  ["416892 (antisense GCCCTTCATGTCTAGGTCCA; 3-14-3 chimeric gapmer, wing sugar chemistry not given here, further chemistry not given here) [compound 416892]", "%", 14],
  ["416896 (antisense eT*eT*eA*dT*dG*d[5mC]*d[5mC]*d[5mC]*dT*dT*d[5mC]*dA*dT*dG*dT*d[5mC]*dT*eA*eG*eG) [compound 416896]", "%", 12],
  ["416972 (antisense eT*eA*dT*dG*d[5mC]*d[5mC]*d[5mC]*dT*dT*d[5mC]*dA*dT*dG*dT*d[5mC]*eT*eA*eG*eG*eT) [compound 416972]", "%", 25]
]}

====

# experiment: Tolerability in Sprague-Dawley rats: body and organ weights (Example 23)
# Type: in vivo
# study.conditions: 50 mg/kg s.c. twice per week for 6 weeks, percentage of the body weight

{"columns": ["construct.sequence", "unit", "Kidney weight"],
 "data": [
  ["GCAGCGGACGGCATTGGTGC (antisense; all C 5-methyl, all phosphorothioate, sugars by position not given here; MOE gapmer, 5-10-5) [ISIS 412225, 5-10-5 MOE gapmer]", "%", 1.0],
  ["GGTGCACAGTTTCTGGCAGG (all C 5-methyl, all phosphorothioate, sugars by position not given here; MOE gapmer) [ISIS 413481, 5-10-5 MOE gapmer]", "%", 0.9],
  ["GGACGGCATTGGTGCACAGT (antisense; all C 5-methyl, all phosphorothioate, sugars by position not given here; MOE gapmer, 5-10-5) [ISIS 413482, 5-10-5 MOE gapmer]", "%", 1.0],
  ["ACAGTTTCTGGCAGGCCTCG (antisense; all C 5-methyl, all phosphorothioate, sugars by position not given here; MOE gapmer, 5-10-5) [ISIS 412223, 5-10-5 MOE gapmer]", "%", 1.0]
]}

====

# System: human Factor XI mRNA
# experiment: Antisense inhibition in HepG2 cells by microwalk gapmers, 75 nM, lipofectin (Example 3)
# Format: cell-based
# study.conditions: HepG2 cells, 75 nM, oligonucleotides targeted to nucleobases 1275 to 1318 of SEQ ID NO: 1
In the oligonucleotide strings, read from the 5' end, every base follows the letter of its sugar. An asterisk marks phosphorothioate; unmarked linkages are phosphodiester. Other units and linkages are bracketed, terminal groups are in braces. A string of capitals states the bases alone. e = 2'-O-(2-methoxyethyl) (MOE); [5mC] = 5-methylcytosine; d = 2'-deoxy (DNA)
Listed substances paired with reported % inhibition of human Factor XI mRNA levels
endpoint: % inhibition of human Factor XI mRNA levels

{"columns": ["substance", "assay.result"],
 "data": [
  ["416938 (antisense eA*eG*e[5mC]*dG*dG*dA*d[5mC]*dG*dG*d[5mC]*dA*dT*dT*dG*dG*dT*dG*e[5mC]*eA*e[5mC]) [compound 416938]", "90%"],
  ["416849 (antisense eG*e[5mC]*eA*e[5mC]*eA*dG*dT*dT*dT*d[5mC]*dT*dG*dG*d[5mC]*dA*eG*eG*e[5mC]*e[5mC]*eT) [compound 416849]", "88%"],
  ["416862 (antisense eA*eG*e[5mC]*eG*eG*dA*d[5mC]*dG*dG*d[5mC]*dA*dT*dT*dG*dG*eT*eG*e[5mC]*eA*e[5mC]) [compound 416862]", "90%"],
  ["416857 (antisense e[5mC]*eG*eG*e[5mC]*eA*dT*dT*dG*dG*dT*dG*d[5mC]*dA*d[5mC]*dA*eG*eT*eT*eT*e[5mC]) [compound 416857]", "92%"],
  ["416932 (antisense e[5mC]*eG*eG*d[5mC]*dA*dT*dT*dG*dG*dT*dG*d[5mC]*dA*d[5mC]*dA*dG*dT*eT*eT*e[5mC]) [compound 416932]", "92%"],
  ["416854 (antisense eA*eT*eT*eG*eG*dT*dG*d[5mC]*dA*d[5mC]*dA*dG*dT*dT*dT*e[5mC]*eT*eG*eG*e[5mC]) [compound 416854]", "90%"],
  ["417002 (antisense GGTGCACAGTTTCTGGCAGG; 2-13-5 gapmer, wing sugar chemistry not given here, further chemistry not given here) [compound 417002]", "92%"]
]}
